system-tested: UniProt Q9NR97
assay: TLR8 inhibition reporter assay (HEK-Blue SEAP)
experimental-setup: read-out: TLR8 IC50; HEK-Blue cells overexpressing human TLR8, R848 15.9 μM stimulation, SEAP reporter
recorded-endpoint: IC50 (nM)
Answer in nM, number only, no unit symbol.

{"columns": ["molecule", "value"],
 "data": [
  ["Cc1c(-c2[nH]c3ccc(C4CCC(NCCO)CC4)nc3c2C(C)C)cn2ncnc2c1C (stereo not drawn) [Example 379]", 4.7]
]}

Just so you know, measured IC50 for CCN1CCN(c2ccc3[nH]c(-c4cc(OC)c5ncnn5c4)c(C(C)C)c3n2)CC1 [Example 119] came out at 0.96

Lookup result for Cc1c(-c2[nH]c3ccc(C4CCC(N(C)C)CC4)nc3c2C(C)C)cn2ncnc2c1C (stereo not drawn) [Example 355] ; measured IC50: 10

Sure, the documented IC50 for CC(C)c1c(-c2cn(C)c3ncncc23)[nH]c2ccc(C3CCC(NCCS(C)(=O)=O)CC3)nc12 (stereo not drawn) [Example 304] is 1.8

IC50 reading for COc1cc(-c2[nH]c3ccc(N4CCN(CC#N)CC4)nc3c2C(C)C)cn2ncnc12 [Example 94] : 1.4

Looking up CC(C)c1c(-c2cc(CO)c3ncnn3c2)[nH]c2ccc(N3CCC(NCC4(C)COC4)CC3)nc12 [Example 82] , I see its IC50 listed as 0.41

Record summary for C#CCNC1CCC(c2ccc3[nH]c(-c4cn5ncnc5c(C)c4C)c(C(C)C)c3n2)CC1 (stereo not drawn) [Example 375] : reported IC50 = 4.4

----------
system-tested: human TLR8 (Homo sapiens (Human), UniProt Q9NR97)
Sequence (Q9NR97 27-1041): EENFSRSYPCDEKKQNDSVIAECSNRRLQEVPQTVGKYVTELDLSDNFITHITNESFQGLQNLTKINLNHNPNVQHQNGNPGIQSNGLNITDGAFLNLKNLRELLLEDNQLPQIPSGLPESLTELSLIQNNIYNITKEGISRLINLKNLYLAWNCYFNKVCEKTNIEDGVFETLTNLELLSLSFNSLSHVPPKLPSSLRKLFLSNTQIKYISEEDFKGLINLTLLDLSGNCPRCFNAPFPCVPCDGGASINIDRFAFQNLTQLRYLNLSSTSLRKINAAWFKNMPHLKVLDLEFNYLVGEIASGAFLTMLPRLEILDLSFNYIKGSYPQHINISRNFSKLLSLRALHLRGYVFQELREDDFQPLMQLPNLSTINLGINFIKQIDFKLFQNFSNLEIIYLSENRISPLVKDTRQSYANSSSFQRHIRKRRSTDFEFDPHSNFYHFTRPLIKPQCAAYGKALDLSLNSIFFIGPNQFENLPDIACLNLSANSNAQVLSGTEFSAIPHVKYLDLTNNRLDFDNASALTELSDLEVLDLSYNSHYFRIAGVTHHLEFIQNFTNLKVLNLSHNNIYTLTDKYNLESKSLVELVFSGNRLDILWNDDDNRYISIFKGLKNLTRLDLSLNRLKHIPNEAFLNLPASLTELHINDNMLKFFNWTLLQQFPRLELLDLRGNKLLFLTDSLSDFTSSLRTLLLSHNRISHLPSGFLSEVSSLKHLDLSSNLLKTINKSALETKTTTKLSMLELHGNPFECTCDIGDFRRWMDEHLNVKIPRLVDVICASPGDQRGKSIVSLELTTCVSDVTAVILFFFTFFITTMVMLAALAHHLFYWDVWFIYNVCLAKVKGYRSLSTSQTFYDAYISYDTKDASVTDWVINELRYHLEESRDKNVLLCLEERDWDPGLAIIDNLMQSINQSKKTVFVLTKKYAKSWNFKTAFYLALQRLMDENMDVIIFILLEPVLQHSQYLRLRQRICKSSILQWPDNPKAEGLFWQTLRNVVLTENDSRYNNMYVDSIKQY
assay: TLR8 inhibition reporter assay (HEK-Blue SEAP)
experimental-setup: read-out: TLR8 IC50; HEK-Blue cells overexpressing human TLR8, R848 15.9 μM stimulation, SEAP reporter
pIC50: −log10 of the molar value.
# if value of pIC50 reaches 8, tag Met; if it stays below, tag Not met

{"columns": ["molecule", "qualitative-label"],
 "data": [
  ["CC(C)c1c(-c2cn(CC#N)c3ncccc23)[nH]c2ccc(C3CCC(NC4CCOCC4)CC3)nc12 (centres unmarked)", "Not met"],
  ["COc1cc(-c2[nH]c3ccc(C4CCC(N(C)CCO)CC4)nc3c2C(C)C)cn2ncnc12 (centres unmarked) [Example 191]", "Met"],
  ["COCCN(C)C1CCC(c2ccc3[nH]c(-c4cn5ncnc5c(C)c4C)c(C(C)C)c3n2)CC1 (centres unmarked) [Example 389]", "Met"],
  ["Cc1c(-c2[nH]c3ccc(N4CCC(NC5CCC5)CC4)nc3c2C(C)C)cn2ncnc2c1C", "Met"],
  ["COc1cc(-c2[nH]c3cc(C)c(C4CCC(N(C)C5COC5)CC4)nc3c2C(C)C)cn2ncnc12 (centres unmarked) [Example 330]", "Met"],
  ["Cc1c(-c2[nH]c3ccc(C4CCC(N(C5CC5)C5COC5)CC4)nc3c2C(C)C)cn2cnnc2c1C (centres unmarked) [Example 239]", "Not met"]
]}

Please find the next molecule below.
Does `CCN(CCN(C)C)C(=O)c1nc2c(C(C)C)c(-c3cc(OC)c4ncnn4c3)[nH]c2cc1C` have a reported pIC50 of at least 8? Met

----------
system-tested: human TLR8 (Homo sapiens (Human))
assay: TLR8 inhibition reporter assay (HEK-Blue SEAP)
experimental-setup: read-out: TLR8 IC50; HEK-Blue cells overexpressing human TLR8, R848 15.9 μM stimulation, SEAP reporter
This section presents compounds with their documented IC50 values.
Answer with a number only, understood to be in nM.

Known results for compounds:
{"columns": ["compound", "IC50 (nM)"],
 "data": [
  ["CC(C)c1c(-c2cn(CC#N)c3ncccc23)[nH]c2ccc(C3CCC(NCCS(C)(=O)=O)CC3)nc12 (stereo not shown) [Example 273]", 66],
  ["Cc1c(-c2[nH]c3ccc(C4CCC(N5CC(F)(F)C5)CC4)nc3c2C(C)C)cn2ncnc2c1C (stereo not shown) [Example 374]", 187]
]}

Field IC50 (entry CC(C)c1c(-c2cc(CO)c3ncnn3c2)[nH]c2ccc(C3CCC(NCCC(F)(F)F)CC3)nc12 (stereo not shown) [Example 308] ) reads 11

Measured IC50 of `Cc1c(-c2[nH]c3ccc(N4CCNCC4=O)nc3c2C(C)C)cn2ncnc2c1C` : 14

----------
Let's look at some compounds and their measured pIC50.
system-tested: human TLR8 (Homo sapiens (Human), UniProt Q9NR97)
assay: TLR8 inhibition reporter assay (HEK-Blue SEAP)
experimental-setup: read-out: TLR8 IC50; HEK-Blue human TLR8 cells, R848 15.9 μM
Worth noting: pIC50 values are minus log10 of concentrations stated in mol/L.

Examples with their reported pIC50 follow.
{"columns": ["compound", "system-tested", "pIC50"],
 "data": [
  ["Cc1c(-c2[nH]c3ccc(N4CCN(C(=O)CN(C(C)C)C(C)C)C[C@@H]4C)nc3c2C(C)C)cn2ncnc2c1C", "human TLR8 (Homo sapiens (Human), UniProt Q9NR97)", 8.39],
  ["CCN(C)CC(=O)N1CCN(c2ccc3[nH]c(-c4cn5ncnc5c(C)c4C)c(C(C)C)c3n2)C[C@@H]1C", "human TLR8 (Homo sapiens (Human), UniProt Q9NR97)", 8.82],
  ["Cc1c(-c2[nH]c3ccc(N4CCNCC45CC5)nc3c2C(C)C)cn2ncnc2c1C", "human TLR8 (Homo sapiens (Human), UniProt Q9NR97)", 7.70],
  ["Cc1c(-c2[nH]c3ccc(N4CCN(C(=O)CNC(C)(C)C)CC4)nc3c2C(C)C)cn2ncnc2c1C", "human TLR8 (Homo sapiens (Human), UniProt Q9NR97)", 8.80],
  ["Cc1c(-c2[nH]c3ccc(C4CCC(NC5CCS(=O)(=O)CC5)CC4)nc3c2C(C)C)cn2ncnc2c1C (stereo not shown)", "human TLR8 (Homo sapiens (Human), UniProt Q9NR97)", 8.80],
  ["Cc1c(-c2[nH]c3ccc(N4CCN(C(=O)CN(C)C(C)(C)C)[C@@H](C)C4)nc3c2C(C)C)cn2ncnc2c1C", "human TLR8 (Homo sapiens (Human), UniProt Q9NR97)", 8.38]
]}

Now look at this entry.
// assay human TLR8 (Homo sapiens (Human), UniProt Q9NR97), entry `Cc1c(-c2[nH]c3ccc(N4C[C@H]5CCC[C@H](C4)N5)nc3c2C(C)C)cn2ncnc2c1C` , pIC50 value = 9.15

----------
# reported IC50; entries follow
system-tested: human TLR8 (Homo sapiens (Human), UniProt Q9NR97)
assay: TLR8 inhibition reporter assay (HEK-Blue SEAP);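 note: SEAP driven by IFN-β minimal promoter carrying NF-κB and AP-1 sites, compounds dosed 0.05 nM to 50 µM for 22 h, inhibition scaled between agonist-plus-DMSO and reference-inhibitor wells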
experimental-setup: read-out: TLR8 IC50; HEK-Blue human TLR8 cells, R848 15.9 μM
# unit: nM | format: bare number

// worked examples, IC50 included
{"columns": ["compound", "system-tested", "units-symbol", "IC50"],
 "data": [
  ["Cc1c(-c2[nH]c3ccc(C4CCC(N5CCC6(CCOC6)C5)CC4)nc3c2C(C)C)cn2ncnc2c1C (stereo not drawn) [Example 1066]", "human TLR8 (Homo sapiens (Human), UniProt Q9NR97)", "nM", 11],
  ["Cc1c(-c2[nH]c3ccc(N4C[C@@H](C)N(C(=O)CCN(C)C)C[C@@H]4C)nc3c2C(C)C)cn2ncnc2c1C", "human TLR8 (Homo sapiens (Human), UniProt Q9NR97)", "nM", 1.4],
  ["Cc1c(-c2[nH]c3ccc(C4CCC(N5CC(C(=O)N(C)C)C5)CC4)nc3c2C(C)C)cn2ncnc2c1C (stereo not drawn) [Example 1047]", "human TLR8 (Homo sapiens (Human), UniProt Q9NR97)", "nM", 3.5],
  ["Cc1c(-c2[nH]c3ccc(C4CCC(N5CC6(CCS6(=O)=O)C5)CC4)nc3c2C(C)C)cn2ncnc2c1C (stereo not drawn) [Example 1076]", "human TLR8 (Homo sapiens (Human), UniProt Q9NR97)", "nM", 1.8],
  ["Cc1c(-c2[nH]c3ccc(N4C[C@H](C)N(C(=O)CN(C)C(C)C)C[C@H]4C)nc3c2C(C)C)cn2ncnc2c1C", "human TLR8 (Homo sapiens (Human), UniProt Q9NR97)", "nM", 4.9]
]}

The compound Cc1c(-c2[nH]c3ccc(C4CCC(N5CCC6(CCOC6)C5)CC4)nc3c2C(C)C)cn2ncnc2c1C (stereo not drawn) [Example 1059] , when measured on human TLR8 (Homo sapiens (Human), UniProt Q9NR97), yielded IC50 of 1.4

Kindly note: human TLR8 (Homo sapiens (Human), UniProt Q9NR97), `Cc1c(-c2[nH]c3ccc(N4CC5(CN(CC#N)C5)C4)nc3c2C(C)C)cn2ncnc2c1C` , IC50 value reported: 32

Case `Cc1c(-c2[nH]c3ccc(N4[C@@H]5CC[C@H]4CN(C(=O)CN(C)C(C)(C)C)C5)nc3c2C(C)C)cn2ncnc2c1C` , human TLR8 (Homo sapiens (Human), UniProt Q9NR97), IC50 recorded as 4.9

# lookup: `Cc1c(-c2[nH]c3ccc(N4CCN(C(=O)CN5CCC5)C[C@H]4C)nc3c2C(C)C)cn2ncnc2c1C` on human TLR8 (Homo sapiens (Human), UniProt Q9NR97), IC50 = 2.5

The observed IC50 for Cc1c(-c2[nH]c3ccc(C4CCC(N5CC(C)(O)C5)CC4)nc3c2C(C)C)cn2ncnc2c1C (stereo not drawn) [Example 1044] when tested with human TLR8 (Homo sapiens (Human), UniProt Q9NR97) stands at 9.2

Form: item COc1cc(-c2[nH]c3ccc(C4CCC(N5CCOCC5)CC4)nc3c2C(C)C)cn2ncnc12 (stereo not drawn) ; test system human TLR8 (Homo sapiens (Human), UniProt Q9NR97); IC50: 25

// compound `Cc1c(-c2[nH]c3ccc(N4CCN(C(=O)CN(C)CC(C)(C)O)CC4)nc3c2C(C)C)cn2ncnc2c1C` , assay human TLR8 (Homo sapiens (Human), UniProt Q9NR97), IC50 value: 1.6

Value sought: IC50, system human TLR8 (Homo sapiens (Human), UniProt Q9NR97), item `CCN(C)CC(=O)N1C[C@@H](C)N(c2ccc3[nH]c(-c4cn5ncnc5c(C)c4C)c(C(C)C)c3n2)C[C@@H]1C` . Result: 14

Short answer on human TLR8 (Homo sapiens (Human), UniProt Q9NR97) for COc1cc(-c2[nH]c3ccc(C4CCC(N5CCC(F)C5)CC4)nc3c2C(C)C)cn2ncnc12 (stereo not drawn) [Example 1072] , IC50: 35

Query Cc1c(-c2[nH]c3ccc(N4CCNC(C)C4C)nc3c2C(C)C)cn2ncnc2c1C (stereo not drawn) on human TLR8 (Homo sapiens (Human), UniProt Q9NR97); IC50 returned: 2.1

Sourced from patent US10544143B2
